- methodSummary: Acute toxicity (LD50)
- reportedConditions: rat, in vivo, iv, rats; read-out: LD₅₀
- Method: The compound for use as an active ingredient in the therapeutic composition for corneal impairment according to this invention is a very safe substance with an extremely low toxic potential and, as such, can be used with advantage for the purposes of this invention. [e.g. the LD₅₀ values of L-ascorbyl DL-α-tocopheryl phosphate potassium (hereinafter referred to briefly as EPC-K) ≧ 5 g/kg p.o. (rats) and ≧ 100 mg/kg i.v. (rats)].
readoutType: LD50

Q: // returns reported LD50 for input Cc1c(C)c2c(c(C)c1OP(=O)(O)OC1=C(O)[C@@H]([C@@H](O)CO)OC1=O)CCC(C)(CCCC(C)CCCC(C)CCCC(C)C)O2 (mixture of isomers)
A: ≥ 100 mg/kg
